Ref: paper PMC9763582

Target: human farnesyltransferase (hFTase) (Homo sapiens, UniProt P49354+P49356)
Construct: IMAC purified FTase, FTα/FTβ heterodimer, His-tagged β-subunit; with farnesyltransferase α-subunit (FNTA)
Assay: continuous fluorescence assay with Dansyl-GCVLS and FPP, […]°C; Ki calculated from IC50 […] (Cheng-Prusoff)
Measure: Ki (µM)
One number for each entry, in µM.

Q: Please give the measured Ki for this compound: CCCC[C@@H](C)/C=C(C)/C=C(\C)C(=O)NC1=C[C@@](O)(/C=C/C=C/C=C/C(=O)NC2=C(O)CCC2=O)[C@@H]2O[C@@H]2C1=O [Manumycin A]
Result: 4.4

* * *

Target: C. elegans farnesyltransferase (ceFTase) (Caenorhabditis elegans, UniProt O44501+Q19752)
Construct: coding regions of FTα (NM_001392242.1) and FTβ (NM_001392654.1), N-terminal His-tag on β-subunit; with farnesyltransferase α-subunit (ceFNTA)
Sequence (Q19752 1-401): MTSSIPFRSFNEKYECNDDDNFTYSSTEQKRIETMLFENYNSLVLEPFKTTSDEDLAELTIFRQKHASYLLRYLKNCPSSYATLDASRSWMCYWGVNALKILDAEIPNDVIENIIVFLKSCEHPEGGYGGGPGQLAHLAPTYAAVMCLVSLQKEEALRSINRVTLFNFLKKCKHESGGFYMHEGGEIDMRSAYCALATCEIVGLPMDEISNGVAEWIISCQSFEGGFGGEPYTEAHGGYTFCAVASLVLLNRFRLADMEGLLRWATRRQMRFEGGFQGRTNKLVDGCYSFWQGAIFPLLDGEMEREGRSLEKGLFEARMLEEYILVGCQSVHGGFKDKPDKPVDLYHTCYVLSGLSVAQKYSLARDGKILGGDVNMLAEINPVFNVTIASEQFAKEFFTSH
Sequence (O44501 1-328): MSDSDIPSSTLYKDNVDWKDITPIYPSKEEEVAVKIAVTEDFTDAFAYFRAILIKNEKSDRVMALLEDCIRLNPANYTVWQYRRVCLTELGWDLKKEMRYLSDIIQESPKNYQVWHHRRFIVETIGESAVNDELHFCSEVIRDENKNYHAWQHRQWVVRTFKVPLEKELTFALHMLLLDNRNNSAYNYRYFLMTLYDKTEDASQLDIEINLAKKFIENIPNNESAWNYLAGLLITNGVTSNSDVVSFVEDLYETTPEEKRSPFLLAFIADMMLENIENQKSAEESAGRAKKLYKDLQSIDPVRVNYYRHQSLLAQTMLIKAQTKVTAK
Assay: continuous fluorescence assay with Dansyl-GCVLS and FPP, […]°C; Ki calculated from IC50 […] (Cheng-Prusoff)
Measure: pKi
One number for each entry, as −log10 of the molar value.

Q: Please give the measured pKi for this molecule: "CCCC[C@@H](C)/C=C(C)/C=C(\C)C(=O)NC1=C[C@@](O)(/C=C/C=C/C=C/C(=O)NC2=C(O)CCC2=O)[C@@H]2O[C@@H]2C1=O"
Result: 5.50
